assay: background-corrected fluorescence of 3'-dye-labeled ssDNA relative to brightest sequence (3'-GCGCG) (fraction); higher = brighter dye fluorescence (less quenching); conditions: dye: Cy5 (3' terminal)
outcome.measure: background-corrected fluorescence
// no unit, no text: just the number

# sequence TTTTTGCATCATGATGCTGCTTTTTTTTTTTTTTTTGCAA [AACGT] ; its background-corrected fluorescence = 0.463

GET /value?item= TTTTTTGCTGATGCTGAGCATTTTTTTTTTTTTTTACACT [TCACA] &field=background-corrected fluorescence returns 0.35

// field: background-corrected fluorescence; key: TTTTTTGATGCGCATGAGCATTTTTTTTTTTTTTTCATCT [TCTAC] ; value = 0.33

response.value for TTTTTTGCTGCGCATGAGCATTTTTTTTTTTTTTTAATCT [TCTAA] (field: background-corrected fluorescence) = 0.338

Lab book: background-corrected fluorescence of TTTTTTGCTGATCAGCAGCATTTTTTTTTTTTTTTACGTT [TTGCA] noted as 0.433

Entry TTTTTTCATCATCATGCTGATTTTTTTTTTTTTTTGGGAC [CAGGG] ; background-corrected fluorescence = 0.401

The sequence listed as TTTTTTGATGAGCATCATCATTTTTTTTTTTTTTTCCTGG [GGTCC] has a reported background-corrected fluorescence of 0.47

The recorded background-corrected fluorescence for TTTTTGCAGCAGCATGCTCATTTTTTTTTTTTTTTTTTAG [GATTT] is 0.394

Value of background-corrected fluorescence reported for the sequence TTTTTTCATGATCATCATGATTTTTTTTTTTTTTTGCGGC [CGGCG] is 0.506

Looking up TTTTTTCAGCATGATCATCATTTTTTTTTTTTTTTGTCGG [GGCTG] , I found its background-corrected fluorescence recorded as 0.506

For record TTTTTTGCTGCTGATGCGCATTTTTTTTTTTTTTTAACAT [TACAA] the listed background-corrected fluorescence is 0.374

Value of measured background-corrected fluorescence for the entry TTTTTTCATCATCATCATGCTTTTTTTTTTTTTTTGGGGA [AGGGG] : 0.757

Notebook: TTTTTTGCTCAGCATCATGATTTTTTTTTTTTTTTAGTGC [CGTGA] , background-corrected fluorescence read as 0.405

Briefly, background-corrected fluorescence measured for TTTTTTGATGATGATGCTCATTTTTTTTTTTTTTTCCCAG [GACCC] : 0.374

// background-corrected fluorescence lookup, sequence = TTTTTGCATGCGCAGCATCATTTTTTTTTTTTTTTTATTG [GTTAT] , result: 0.359

Sample TTTTTGCATGCGCAGCATGCTTTTTTTTTTTTTTTTATTA [ATTAT] ; background-corrected fluorescence observed: 0.409

Lab book: background-corrected fluorescence of TTTTTTGAGCAGCAGCATGCTTTTTTTTTTTTTTTCTTTA [ATTTC] noted as 0.4

// recorded background-corrected fluorescence for TTTTTGCATGAGCATGCTCATTTTTTTTTTTTTTTTCTAG [GATCT] : 0.401

The recorded background-corrected fluorescence for entry TTTTTTGCGCATGCGCATGATTTTTTTTTTTTTTTATATC [CTATA] equals 0.322

Record TTTTTTCAGCAGCATGCTGATTTTTTTTTTTTTTTGTTAC [CATTG] , field background-corrected fluorescence: 0.338

# background-corrected fluorescence of TTTTTTCATGATGATGATGCTTTTTTTTTTTTTTTGCCCA [ACCCG] = 0.389

Entry TTTTTTGCGCATGCTGATGATTTTTTTTTTTTTTTATACC [CCATA] ; background-corrected fluorescence = 0.295

Per the records, this sequence ( TTTTTTGCGCAGCATCATGATTTTTTTTTTTTTTTATTGC [CGTTA] ) has background-corrected fluorescence equal to 0.402

Lab book: background-corrected fluorescence of TTTTTTGCTGCTGCGCATCATTTTTTTTTTTTTTTAAATG [GTAAA] noted as 0.375

For TTTTTGCATGCTGATCATGATTTTTTTTTTTTTTTTACGC [CGCAT] the sequence record lists background-corrected fluorescence as 0.439

The sequence listed as TTTTTTCATGCGCAGCATCATTTTTTTTTTTTTTTGATTG [GTTAG] shows background-corrected fluorescence equal to 0.355

Value of background-corrected fluorescence reported for the sequence TTTTTTCATCATGCGCAGCATTTTTTTTTTTTTTTGGATT [TTAGG] is 0.41

Measured background-corrected fluorescence, TTTTTTGCGCATCATGATCATTTTTTTTTTTTTTTATGCG [GCGTA] : 0.49

Reported background-corrected fluorescence ( TTTTTTGCTGCTCATGCTGCTTTTTTTTTTTTTTTAAGAA ) = 0.481

background-corrected fluorescence measured on TTTTTTGATGAGCAGCAGCATTTTTTTTTTTTTTTCCTTT = 0.347

Per the records, this sequence ( TTTTTGCATGATCATCATGATTTTTTTTTTTTTTTTCGGC [CGGCT] ) has background-corrected fluorescence equal to 0.47

get_value(item= TTTTTGCAGCATGCGCATCATTTTTTTTTTTTTTTTTATG [GTATT] , readout=background-corrected fluorescence) returns 0.366

Please fill in: background-corrected fluorescence reported for TTTTTGCATGCGCATGATCATTTTTTTTTTTTTTTTATCG [GCTAT] = 0.402

Form field background-corrected fluorescence, entry TTTTTTGAGCATGCTGATCATTTTTTTTTTTTTTTCTACG [GCATC] : 0.416

For record TTTTTTGATGATGCTGCTGCTTTTTTTTTTTTTTTCCAAA [AAACC] the listed background-corrected fluorescence is 0.445

Recorded result, TTTTTTCATGAGCATGAGCATTTTTTTTTTTTTTTGCTCT [TCTCG] , background-corrected fluorescence: 0.337

The sequence identified as TTTTTTGATCATGATCATGCTTTTTTTTTTTTTTTCGCGA [AGCGC] registered its background-corrected fluorescence at 0.792

The sequence listed as TTTTTGCATCAGCATGATGCTTTTTTTTTTTTTTTTGTCA [ACTGT] has a reported background-corrected fluorescence of 0.439

Record TTTTTGCATGATGCGCAGCATTTTTTTTTTTTTTTTCATT [TTACT] , field background-corrected fluorescence: 0.359

###

assay: background-corrected fluorescence of 3'-dye-labeled ssDNA relative to brightest sequence (3'-GCGCG) (fraction); higher = brighter dye fluorescence (less quenching); settings: dye: Cy3 (3' terminal)
Outcome label depends on background-corrected fluorescence relative to 0.5: at/above gives fulfilled, below gives not fulfilled.

# check: background-corrected fluorescence of TTTTTTCAGCAGCATGCTGCTTTTTTTTTTTTTTTGTTAA [AATTG] is greater than or equal to 0.5 fulfilled

Determine whether this sequence has background-corrected fluorescence no lower than 0.5: TTTTTTGAGCATGCTGAGCATTTTTTTTTTTTTTTCTACT [TCATC] not fulfilled

background-corrected fluorescence >= 0.5 for TTTTTTCATCATCATCATCATTTTTTTTTTTTTTTGGGGG ? fulfilled

Please indicate if the recorded background-corrected fluorescence for TTTTTTCAGCATGCTCATCATTTTTTTTTTTTTTTGTAGG [GGATG] meets or exceeds 0.5. fulfilled

Determine whether measured background-corrected fluorescence meets or exceeds 0.5 for TTTTTTGCGCATCAGCATGATTTTTTTTTTTTTTTATGTC [CTGTA] not fulfilled

Is reported background-corrected fluorescence greater than or equal to 0.5 here: TTTTTTGCTGATGCTGCGCATTTTTTTTTTTTTTTACAAT [TAACA] fulfilled

###

test: background-corrected fluorescence of 3'-dye-labeled ssDNA relative to brightest sequence (3'-GCGCG) (fraction); higher = brighter dye fluorescence (less quenching); conditions: dye: Cy5 (3' terminal)
Kindly state background-corrected fluorescence for each of the entries shown.
Give a plain numeric answer without units written out.

The value of background-corrected fluorescence measured for the sequence TTTTTGCATGCTGCTGCTGATTTTTTTTTTTTTTTTAAAC [CAAAT] turned out to be 0.336

Consider TTTTTTGCTGATGCTGCTGCTTTTTTTTTTTTTTTACAAA [AAACA] . Its measured background-corrected fluorescence is 0.499

Briefly, background-corrected fluorescence measured for TTTTTTGCTGAGCAGCAGCATTTTTTTTTTTTTTTACTTT [TTTCA] : 0.37

The sequence TTTTTGCAGCAGCATCATCATTTTTTTTTTTTTTTTTTGG [GGTTT] showed background-corrected fluorescence equal to 0.444

Record TTTTTTCATCATGCTGATGCTTTTTTTTTTTTTTTGGACA [ACAGG] , field background-corrected fluorescence: 0.435

What the record says about TTTTTTCATCATGCGCATCATTTTTTTTTTTTTTTGGATG [GTAGG] : background-corrected fluorescence is 0.388
